system: THP-1; assay: THP-1 cell loss relative to DMSO control; higher = more host cell loss (toxicity); extreme values may be limits of the assay; settings: 10 µM; 4 days; infection: M. tuberculosis H37Rv
Record True whenever THP-1 cell loss is at 80% or higher; record False when lower.

molecule	category
O=C1NC(=O)c2c1c1c3ccccc3[nH]c1c1[nH]c3ccccc3c21	False
COc1ccc2c(c[n+](C)c3c4cc5c(cc4ccc23)OCO5)c1OC [Chelerythrine chloride]	True
Cn1cc(C2=C(c3cn(C4CCN(Cc5ccccn5)CC4)c4ccccc34)C(=O)NC2=O)c2ccccc21	False
NC(=S)N/N=C/c1coc2ccccc2c1=O.[Cl][Cu][Cl]	False
Cc1ccccc1-n1c(Cn2cnc3c(N)ncnc32)nc2cccc(C)c2c1=O	False
CCn1cnc2c(Nc3cccc(Cl)c3)nc(N[C@@H]3CCCC[C@@H]3N)nc21	True
COc1ccc2c(c1)/C(=C/c1cnc[nH]1)C(=O)N2	False
O=C1NC(=O)c2c1c1c3ccccc3n3c1c1c2c2ccccc2n1[C@H]1CC[C@@H]3O1	True
O=C1Nc2ccc3ncsc3c2/C1=C/c1cnc[nH]1	True
